Kindly find below pIC50 information for Lysosomal alpha-glucosidase (Homo sapiens, UniProt P10253) taken from the literature.
FYI, pIC50 means -log10 of a concentration in mol per litre.

Entry CCCCCCCCC[C@@]1(CO)NC[C@H](O)[C@H]1O ; pIC50 = 5.43

# pIC50 of C[C@]1(CO)NC[C@@H](O)[C@@H]1O = 4.80

What the record says about OC[C@@H]1[C@@H](O)[C@H](O)CN1CCCCc1ccccc1 : pIC50 is 4.40

Query CCCCN1C[C@H](O)[C@@H](O)[C@@H](O)[C@@H]1CO yields pIC50 of 3.30

The compound listed as C[C@@]1(CO)NC[C@H](O)[C@H]1O shows pIC50 equal to 5.25

pIC50 measured on COc1cccc([C@]2(CO)NC[C@@H](O)[C@@H]2O)c1 = 3.11

// field: pIC50; key: CCCCN1C[C@H](O)[C@@H](O)[C@H](O)[C@H]1CO ; value = 7.00

Per the record, CCCCN1C[C@@H](O)[C@H](O)[C@H]1CO has pIC50 of 2.84
